B1: ANKRD40 (parent)
chain: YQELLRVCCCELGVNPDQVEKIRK

# Variants of: B1
# test: protein stability index of a GFP-peptide fusion (GPS, HEK-293T) (PSI 1-6); higher = more stable;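 note: lentivirally expressed fusions sorted by FACS into six bins by GFP to DsRed ratio, PSI derived from sequencing read proportions per bin multiplied by bin number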
# conditionInfo: c terminus: a fixed tail appended
The variants listed here are annotated with their protein stability index.
Please give only the number in your answer, with no unit.

[[record]]
mutationlist = "Y1K"
quantitativereadout = 1.96

[[record]]
mutationlist = "K21W"
quantitativereadout = 2.33

[[record]]
mutationlist = "Y1Q"
quantitativereadout = 3.28

[[record]]
mutationlist = "I22C"
quantitativereadout = 2.13

[[record]]
mutationlist = "K24W"
quantitativereadout = 1.27


**Q:** Form field: reported protein stability index of V19L
**A:** 2.2

**Q:** Form field: reported protein stability index of E11Y
**A:** 1.27

**Q:** Form field: reported protein stability index of V19I
**A:** 2.25
